System: E. coli expressing blaNDM-1
Test: Meropenem rescue concentration, antimicrobial susceptibility test
Type: cell-based, Escherichia coli
Details: rescue concentration at meropenem 2 μg/mL, MHB
Property: RC in MHB, NDM-1; scope: individual molecules
# output: bare number, implied unit µg/mL

{"Item Smiles": "N[C@@H](CN[C@@H](CN[C@@H](CC(=O)O)C(=O)O)C(=O)O)CSc1ccc(O)cc1", "System": "E. coli expressing blaNDM-1", "Measure Unit": "µg/mL", "RC in MHB, NDM-1": 8}
{"Item Smiles": "N[C@@H](CN[C@@H](CN[C@@H](CCS)C(=O)O)C(=O)O)C(=O)O", "System": "E. coli expressing blaNDM-1", "Measure Unit": "µg/mL", "RC in MHB, NDM-1": 64}

Form field RC in MHB, NDM-1, entry N[C@@H](CN[C@@H](CN[C@@H](Cc1c[nH]cn1)C(=O)O)C(=O)O)C(=O)O : 8

N[C@@H](CN[C@@H](CN[C@@H](CO)C(=O)O)C(=O)O)C(=O)O has a reported RC in MHB, NDM-1 of 32

* * *

System: E. coli expressing blaNDM-1
Test: Meropenem rescue concentration, antimicrobial susceptibility test
Assay type: cell-based, Escherichia coli
Settings: rescue concentration at meropenem 2 μg/mL, MHB
Outcome Measure: RC in MHB, NDM-1 (µg/mL)
Give the value, in units of µg/mL, as a plain number.

{"Compound": "N[C@@H](CN[C@@H](CN[C@@H](CC(=O)O)C(=O)O)C(=O)O)CSc1ccccc1", "Measure Unit": "µg/mL", "Readout Number": 8}
{"Compound": "N[C@@H](CN[C@@H](CN[C@@H](Cc1ccc(OP(=O)(O)O)cc1)C(=O)O)C(=O)O)C(=O)O (mixture of isomers)", "Measure Unit": "µg/mL", "Readout Number": 64}

Consider now this further compound.
The compound listed as CC(C)(S)C(NC[C@H](NC[C@H](N)C(=O)O)C(=O)O)C(=O)O (stereo in doubt) [Compound 14] shows RC in MHB, NDM-1 equal to 32

* * *

The following compounds are shown together with reported log10(Kd) values.
Assay: Zn2+ affinity by competition with colorimetric PAR assay
Format: binding
Details: read-out: Kd,Zn2; PAR 100 μM, ZnSO4 10 μM, pH 7.5, 3 h at 25 °C
All values: base-10 log of Kd in nM.

Study these solved cases before continuing.
{"Compound": "CC(C)(S)C(NC[C@H](NC[C@H](N)C(=O)O)C(=O)O)C(=O)O (stereo in doubt) [Compound 14]", "log10(Kd)": 0.41}
{"Compound": "N=C(N)NCCC[C@H](NC[C@H](NC[C@H](N)C(=O)O)C(=O)O)C(=O)O", "log10(Kd)": 1.38}
{"Compound": "CC(C)(S)C(NC[C@H](NC[C@H](N)C(=O)O)C(=O)O)C(=O)O (stereo in doubt) [Compound 15]", "log10(Kd)": 0.36}
{"Compound": "N[C@@H](CN[C@@H](CN[C@@H](CC(=O)O)C(=O)O)C(=O)O)CSc1ccccc1", "log10(Kd)": -0.40}
{"Compound": "N[C@@H](CN[C@@H](CN[C@@H](CC(=O)O)C(=O)O)C(=O)O)CSc1ccc(O)cc1", "log10(Kd)": 0.89}
{"Compound": "NCC(=O)N[C@@H](CN[C@@H](CN[C@@H](CC(=O)O)C(=O)O)C(=O)O)C(=O)O", "log10(Kd)": 1.30}
{"Compound": "N[C@@H](CN[C@@H](CN[C@@H](CC(=O)O)C(=O)O)CSc1ccccc1)C(=O)O", "log10(Kd)": 0.36}
{"Compound": "NC(Cc1ccc(O)cc1)C(=O)N[C@@H](CN[C@@H](CN[C@@H](CC(=O)O)C(=O)O)C(=O)O)C(=O)O (stereo in doubt)", "log10(Kd)": 0.15}

Here's the next entry for you.
Just so you know, measured log10(Kd) for N[C@@H](CN[C@@H](CN[C@@H](CO)C(=O)O)C(=O)O)C(=O)O came out at 0.65

* * *

Reported IC50 values for a set of compounds
Target: NDM-1 (Klebsiella pneumoniae)
Sequence (C7C422 29-270, looked up, species assumed): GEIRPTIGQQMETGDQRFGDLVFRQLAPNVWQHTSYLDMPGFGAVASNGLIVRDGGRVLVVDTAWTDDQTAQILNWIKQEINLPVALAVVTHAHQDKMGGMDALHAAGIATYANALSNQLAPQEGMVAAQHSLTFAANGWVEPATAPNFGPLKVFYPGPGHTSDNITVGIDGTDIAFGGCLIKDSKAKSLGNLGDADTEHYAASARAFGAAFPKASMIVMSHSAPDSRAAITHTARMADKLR
Assay: In vitro enzyme inhibition assay, purified recombinant NDM-1
Format: biochemical
Details: IC50 NDM-1 - Zn, Zn2+-depleted (Chelex-100-treated) buffer
Respond numerically; units are µM and should not be typed.

{"Compound": "Cc1ccc(SC[C@@H](N)CN[C@@H](CN[C@@H](CC(=O)O)C(=O)O)C(=O)O)cc1", "IC50, µM": 97.2}

get_value(item= N[C@@H](CN[C@@H](CN[C@@H](CC(=O)O)C(=O)O)C(=O)O)CSc1ccccc1 , readout=IC50) returns 150

// CC(C)(S)C(NC[C@H](NC[C@H](N)C(=O)O)C(=O)O)C(=O)O (stereo in doubt) [Compound 14] : IC50 value = 185

* * *

Tested on: E. coli expressing blaNDM-1
Experiment: Meropenem rescue concentration, antimicrobial susceptibility test
Format: cell-based, Escherichia coli
Conditions: rescue concentration at meropenem 2 μg/mL, MHB
Outcome Measure: RC in MHB, NDM-1 (µg/mL)
API: value field is a number in µg/mL; no unit string.

Lab note: CC(C)(S)C(NC[C@H](NC[C@H](N)C(=O)O)C(=O)O)C(=O)O (stereo in doubt) [Compound 15] gave RC in MHB, NDM-1 of 32

* * *

Target: UniProt C7C422
Test: In vitro enzyme inhibition assay, purified recombinant NDM-1
Format: biochemical
Settings: IC50 NDM-1 + Zn, Zn2+-supplemented (10 μM) buffer
IC50 under 50 µM gets 1, anything at or over 50 µM gets 0.

Illustrative cases are given below, each with its answer.
{"Molecule": "N[C@@H](CN[C@@H](CN[C@@H](CC(=O)O)C(=O)O)C(=O)O)CSc1ccc(O)cc1 [Compound 6]", "Class Assignment": 0}
{"Molecule": "N[C@@H](CN[C@@H](CN[C@@H](CC(=O)O)C(=O)O)C(=O)O)CSCCO [Compound 8]", "Class Assignment": 0}
{"Molecule": "N[C@@H](CN[C@@H](CN[C@@H](Cc1ccc(O)cc1)C(=O)O)C(=O)O)C(=O)O [Compound 20]", "Class Assignment": 1}
{"Molecule": "Cc1ccc(SC[C@@H](N)CN[C@@H](CN[C@@H](CC(=O)O)C(=O)O)C(=O)O)cc1 [Compound 5]", "Class Assignment": 0}
{"Molecule": "N[C@@H](CN[C@@H](CN[C@@H](Cc1c[nH]cn1)C(=O)O)C(=O)O)C(=O)O [Compound 10]", "Class Assignment": 1}
{"Molecule": "N[C@@H](CN[C@@H](CN[C@@H](CC(=O)O)C(=O)O)CSc1ccccc1)C(=O)O [Compound 9]", "Class Assignment": 0}

Ask | # TODO verify IC50 < 50 µM strictly for this molecule: N[C@@H](CN[C@@H](CN[C@@H](CO)C(=O)O)C(=O)O)C(=O)O [Compound 19]
Reply | 0

Ask | State whether 50 µM exceeds IC50 recorded for N[C@@H](CN[C@@H](CN[C@@H](CCS)C(=O)O)C(=O)O)C(=O)O [Compound 13] .
Reply | 0

* * *

Target: NDM-1 (Klebsiella pneumoniae)
Assay: In vitro enzyme inhibition assay, purified recombinant NDM-1
Assay type: biochemical
Conditions: IC50 NDM-1 + Zn, Zn2+-supplemented (10 μM) buffer
pIC50: −log10 of the molar value.
Outcome label depends on pIC50 relative to 4: at/above gives Fulfilled, below gives Not fulfilled.

Consider the following illustrative entries.
{"Compound": "N[C@@H](CN[C@@H](CN[C@H](C(=O)O)c1ccc(O)cc1)C(=O)O)C(=O)O [Compound 22]", "System": "NDM-1 (Klebsiella pneumoniae)", "Class Assignment": "Not fulfilled"}
{"Compound": "N[C@@H](CN[C@@H](CNC(CS)C(=O)O)C(=O)O)C(=O)O (stereo in doubt) [Compound 12]", "System": "NDM-1 (Klebsiella pneumoniae)", "Class Assignment": "Not fulfilled"}
{"Compound": "N[C@@H](CN[C@@H](CN[C@@H](CC(=O)O)C(=O)O)C(=O)O)CSc1ccccc1 [Compound 4]", "System": "NDM-1 (Klebsiella pneumoniae)", "Class Assignment": "Fulfilled"}

Ask | Determine whether measured pIC50 meets or exceeds 4 for CCCSC[C@@H](N)CN[C@@H](CN[C@@H](CC(=O)O)C(=O)O)C(=O)O [Compound 7]
Reply | Fulfilled

Ask | Reported pIC50 at or above 4? N=C(N)NCCC[C@H](NC[C@H](NC[C@H](N)C(=O)O)C(=O)O)C(=O)O [Compound 17]
Reply | Not fulfilled

Ask | Is the recorded value of pIC50 equal to or greater than 4 for this compound? NC(Cc1ccc(O)cc1)C(=O)N[C@@H](CN[C@@H](CN[C@@H](CC(=O)O)C(=O)O)C(=O)O)C(=O)O (stereo in doubt) [Compound 2]
Reply | Not fulfilled

Ask | Please tell me: is the compound N[C@@H](CN[C@@H](CN[C@@H](Cc1ccc(OP(=O)(O)O)cc1)C(=O)O)C(=O)O)C(=O)O (mixture of isomers) [Compound 21] at or over 4 in terms of pIC50?
Reply | Fulfilled
